The origin of these recorded values is paper PMC9848257.

Tested on: SW-620
Assay: NCI-60 one-dose screen, SW-620
Assay type: cell-based
Conditions: Homo sapiens; SW-620, colon cancer; single dose 10 μM; read-out: Growth inhibition %

| molecular-string | system | inhibition at 10 µM |
| --- | --- | --- |
| Cc1ccc(-c2nnc(N3c4ccccc4C=Cc4ccccc43)o2)cc1 | SW-620 | < 10% |
| C1=Cc2ccccc2N(c2nnc(-c3ccccc3)o2)c2ccccc21 | SW-620 | < 10% |
| O=C(NNC(=O)N1c2ccccc2C=Cc2ccccc21)c1ccc([N+](=O)[O-])cc1 | SW-620 | < 10% |
| O=C(NNC(=O)N1c2ccccc2C=Cc2ccccc21)c1ccc(Br)cc1 | SW-620 | 11.8% |
| Brc1ccc(-c2nnc(N3c4ccccc4C=Cc4ccccc43)o2)cc1 | SW-620 | < 10% |
| O=C(Cc1ccccc1)NNC(=O)N1c2ccccc2C=Cc2ccccc21 | SW-620 | < 10% |
| O=C(NNC(=O)N1c2ccccc2C=Cc2ccccc21)c1ccccc1 | SW-620 | < 10% |
| C1=Cc2ccccc2N(c2nnc(Cc3ccccc3)o2)c2ccccc21 | SW-620 | 19.7% |
| O=C(NNC(=O)N1c2ccccc2C=Cc2ccccc21)c1ccc(Cl)cc1 | SW-620 | < 10% |

* * *

Quick reference for inhibition at 10 µM among some compounds
Tested on: HS 578 T
Experiment: NCI-60 one-dose screen, HS 578 T
Assay type: cell-based
Conditions: Homo sapiens, breast cancer, single dose 10 μM, read-out: Growth inhibition %

| molecular-string | system | inhibition at 10 µM |
| --- | --- | --- |
| O=C(Cc1ccccc1)NNC(=O)N1c2ccccc2C=Cc2ccccc21 | HS 578 T | < 10% |
| C1=Cc2ccccc2N(c2nnc(-c3ccccc3)o2)c2ccccc21 | HS 578 T | < 10% |
| O=[N+]([O-])c1ccc(-c2nnc(N3c4ccccc4C=Cc4ccccc43)o2)cc1 | HS 578 T | < 10% |
| C1=Cc2ccccc2N(c2nnc(-c3ccc4ccccc4c3)o2)c2ccccc21 | HS 578 T | < 10% |
| C1=Cc2ccccc2N(c2nnc(Cc3ccccc3)o2)c2ccccc21 | HS 578 T | 24.1% |
| Clc1ccc(-c2nnc(N3c4ccccc4C=Cc4ccccc43)o2)cc1 | HS 578 T | < 10% |
| O=C(NNC(=O)N1c2ccccc2C=Cc2ccccc21)c1ccc(Cl)cc1 | HS 578 T | < 10% |
| Cc1ccc(C(=O)NNC(=O)N2c3ccccc3C=Cc3ccccc32)cc1 | HS 578 T | < 10% |
| Cc1ccc(-c2nnc(N3c4ccccc4C=Cc4ccccc43)o2)cc1 | HS 578 T | 13.2% |

* * *

Tested on: MCF-7
Assay: NCI-60 one-dose screen, MCF-7
Type: cell-based
Details: Homo sapiens, MCF7; MCF-7, breast cancer; single dose 10 μM; read-out: Growth inhibition %

| molecular-string | qual | inhibition at 10 µM [%] |
| --- | --- | --- |
| Cc1ccc(C(=O)NNC(=O)N2c3ccccc3C=Cc3ccccc32)cc1 | < | 10 |
| O=C(NNC(=O)N1c2ccccc2C=Cc2ccccc21)c1ccc(Cl)cc1 | < | 10 |
| O=[N+]([O-])c1ccc(-c2nnc(N3c4ccccc4C=Cc4ccccc43)o2)cc1 | = | 17.4 |
| O=C(NNC(=O)N1c2ccccc2C=Cc2ccccc21)c1ccc(Br)cc1 | < | 10 |
| Cc1ccc(-c2nnc(N3c4ccccc4C=Cc4ccccc43)o2)cc1 | = | 15.7 |
| Clc1ccc(-c2nnc(N3c4ccccc4C=Cc4ccccc43)o2)cc1 | = | 35.6 |
| O=C(NNC(=O)N1c2ccccc2C=Cc2ccccc21)c1ccccc1 | < | 10 |
| C1=Cc2ccccc2N(c2nnc(-c3ccc4ccccc4c3)o2)c2ccccc21 | = | 24.4 |
| Brc1ccc(-c2nnc(N3c4ccccc4C=Cc4ccccc43)o2)cc1 | = | 30.5 |
| C1=Cc2ccccc2N(c2nnc(Cc3ccccc3)o2)c2ccccc21 | < | 10 |
| O=C(NNC(=O)N1c2ccccc2C=Cc2ccccc21)c1ccc2ccccc2c1 | = | 14 |
| O=C(NNC(=O)N1c2ccccc2C=Cc2ccccc21)c1ccc([N+](=O)[O-])cc1 | < | 10 |
| O=C(Cc1ccccc1)NNC(=O)N1c2ccccc2C=Cc2ccccc21 | < | 10 |
| C1=Cc2ccccc2N(c2nnc(-c3ccccc3)o2)c2ccccc21 | = | 14.4 |
